- System: PPARg:RXRa (NR concentration 180 nM, RXRa partner concentration 90 nM)
- test.method.notes: PBM binding z-score (relative to random genomic background probes); higher = stronger binding; sequences stand for … in GC…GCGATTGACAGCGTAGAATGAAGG
Assignment: determine reported PBM binding z-score for the given sequences.
Enter the number alone.

Field request: PBM binding z-score | item: CCGACTGGGGCAAGGTTCCCATAACGCACAGCCA
3.1

Item: TCAGACAGGTGAAGGGAACTCAGGTACGCAGTCG
0.602

Item: GCAGACGGGTGAAACGCAGGTAACTCAGGGTGGC
0.241

Item: TCTAGCAGGCCAGAGGGTGACTCAAGAGGTACGG
1.05

Item: GCAGACAGGTGAAACGCAGGTAGCTCAGGGTGGC
0.213

Item: TCTAGTTGGTCAAAGGTCACAAACTCGAAATGCG
10.9

Item: ATCTCTAGGTAAAGATATTTCAGTGAATGCAAAT
0.976

Item: ATCGAAAGGTCGAAGGTGAGGATACCCACCCGAA
4.61

Item: TCGAGTAGGTTAGTCGGGGCATTCAGCCAACATA
-0.224

Item: AGAATGCGGTTAAGATCAGGGAAACAGAATACAT
0.331

Item: TCTCGGAGGACACGAAGGTGAGAGCTTTCCAGAG
0.00837

Item: TCTTGTAGATCAGCAGGTTGAGAAAGCTGGCCAA
-0.781

Item: CGTCCAAGGTCAAAGGCCAGTGAAGAGATGACGG
6.49

Item: GCTATTAGTTGAAATGGCAACCGAATGATTCTCG
0.344

====

Assignment: determine reported PBM binding z-score for the given sequences.
- Tested on: RARa:RXR (NR concentration 270 nM, RXRa partner concentration 90 nM)
- test.method.notes: PBM binding z-score (relative to random genomic background probes); higher = stronger binding; sequences stand for … in GC…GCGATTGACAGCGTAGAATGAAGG

Field request: PBM binding z-score | item: ACTATTAGTTGCCTTAGGGCAACCGATACGACGC
0.576

Item: CGTCCAAGGTCAATCCTAGGTCAGTGAAAGCATT
6.44

Item: CCGACTCGGGCATAAGGTTACCATAAGCCAGCCC
0.884

Item: GCTGCTAGGTCAACTGGTGGTCAGCTAAAGCTCG
3.34

Item: TCTAGCAGGCCAGAGGGTCTCTCAAGAGGTACGG
-0.436

Item: CCAGACAGGTGAGGAGGTAACTCAGCCTCGATTA
0.341

Item: TCATATAGGTAAAGGTGAAAGTAGAACGATATGA
1.42

Item: CGTCAAATTTCAACTAAGGTAACGTAAAGCACGC
0.981

Item: GCTATTAGTTGAAAGGGCACCCGAATGATTCTCG
1.28

Item: TCTGCTAGGTCAACGATGGTCAGGTAATCTGCTA
2.34

Item: TCTATTAGTTGAAGGGGAACCGACGAGTCCGTTT
0.424

Item: CCGACTGGGGCATAACGTTACCATAAGCCAGCCC
-0.522

Item: TAGCCTAGGTCAGATAGGGCCAGTATACGCTATA
0.802

Item: AGTCCAAGTTCAGGACGAGGTAACGTAAAGCACG
1.34

Item: GATCGGAGGACAAGGTCAGAGCTTTGTCCGTAGA
2.03

Item: CCTCGGAGGACAACGGGAGGTCAGAGCTGCCAGA
2.8

Item: CCTGCTAGGCCATGGTCAGCTAATCTACAGTATG
-0.631

Item: CTCGAAAGGTCGGTTGAGGCGAGTATACGGATAA
2

====

- Tested on: VDR homodimer (NR concentration 270 nM)
- test.method.notes: PBM binding z-score (relative to random genomic background probes); higher = stronger binding; sequences stand for … in GC…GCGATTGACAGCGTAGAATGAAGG
quantity: PBM binding z-score

Field request: PBM binding z-score | item: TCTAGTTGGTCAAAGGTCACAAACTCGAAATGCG
2.43

Item: CCTGCTAGGTCAATTGTCAGCTAAAGCAGCTCGC
-0.128

Item: GCTAGTTGGTCATTAAAAGGTCACACACCGGTCG
1.75

Item: ACAGACAGGTGATAAAGGTAACTCAGGCTATCAT
-0.632

Item: TGAATAAGGTTATAAGATCAGGGAACGTTGCAAA
0.135

Item: CCTATTAGTTGACCATAAGGGCAACCAAAGCTCG
0.747

Item: CCGGACAGGTGAGAAGGTAACTCAGCCTCGATTA
-0.222

Item: ACAGACAGGTGATGAAGGTTACTCAGGCTATCAT
0.291

Item: CAGACTGGGGCAAAGGTTACCATACTCAGTACGA
0.311

Item: GCATATAGGTAATACAAGGTGTAAGTCCGATTGT
-0.121

====

- Tested on: PPARg:RXRa IVT, anti-PPARg (NR concentration 270 nM, RXRa partner concentration 90 nM)
- test.method.notes: PBM binding z-score (relative to random genomic background probes); higher = stronger binding; sequences stand for … in GC…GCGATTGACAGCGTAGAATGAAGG
quantity: PBM binding z-score
Enter the number alone.

Field request: PBM binding z-score | item: AGAAGGAGGTTATTAAGATCAGGGAATTGCGGTC
1.6

Item: GTACCAAGGTGAATATGTCGTTGATGAGTAGGCG
1.95

Item: TGAATGAGGTTGTAAGATCAGGGAACGTTGCAAA
-0.0172

Item: CGAACTAGGTCACAGAGGTCAAAGTCCGTGCGTA
8.94

Item: TCTTGTAGATCAGTAGGTTAAGAAAGCTGGCCAA
2.61

Item: TACCCTAGGTCAGATCGGGCCAGTATACGCTATA
2.17

Item: ATCGACAGGTCGTGAGGTGAGTATACAGAAAGGC
0.86

Item: ATTTCTAGGTAAAGATAGTTCAGTGAATGCAAAT
3.44

Item: CGAACTAGGTCAAGGACAGTGAATCTCCGCACGC
8.25

Item: CCTAGTTGGTCAGGAGGTCATACACCGGATATGA
3.03

Item: TCGAGTAGGTTAGTCGGGGTATTCAGCCAACATA
1.56

Item: TGTCAAGGTTCAAAGGTAACGTAAGTATCCACAC
3.17

Item: CCTAGTTGGTCAGGAGGTCACCCACCGGATATGA
3.28

Item: ATATATAGGTTAGCTGGGGTCATTCAGACTAGGC
5.96

Item: AGAATAAGGTTACCAAAGATCAGGGAAACGCTTG
2.26

Item: CTACCAAGGTGAACAAGGTCGGTGATTACTATTC
2.78

Item: CGAACGAGGGCATGAGTTGATGGCAAATGCCGAT
2.23

Item: CGTCCAAGGTCAATGCTAGGTCAGTGATAGCATT
4.23

Item: CCAGACAAGTGAAAGGTAACTCAGTCTGGTACGC
0.0117

Item: TAGCTTAGGTCAGATCGGGCCAGTATACGCTATA
0.996

Item: CCGACTGGGGCAATGTTACCATAACGCACAGCCA
2.99

Item: GGAACGAGGGCATACGAGTTGATAGCATGGCGAT
1.74

Item: ATATGTAGGGTAGCTGGGGTCATTCAGACTAGGC
5.46

Item: CTCGATAGGTCGTGCTCAGGTGAGTATACCAAAC
0.78

Item: TCTTGTAGATCAACAGGAGGTTAAGAAAGATCGA
0.568

Item: TCTTGTAGATCAAAGGTTTAGAAAGCCGAAGCCT
1.19

Item: TCTAGTTGGTTAAAGGTCACACACTCGAAATGCG
5.25

Item: ATCGAAGGGTCGTGAGGTGAGTATACAGAAAGGC
1.48

Item: CCTACTGGGCCACGAACGGTCATTGATTCAGTGA
4.88

Item: CGAACTATGTCATCCAGGACAGTGAATACATTGA
2.94

Item: CTTACTGGGCCAAGGTCATTGATCAGTCAAAGCA
6.49

Item: CCTACTTGGCCATTCAGAGGTCATTGATCATATG
1.52

Item: TCGAGTAGGTTAACAATGGGGCATTCAGCTTTCT
2.78

Item: ACTCGGAGGACAAAGGTCAGTGCTACGCCAGTGA
3.58

Item: ACAGACAGGTGAGTGAAGGTAACCCAGCTGGACG
0.884

Item: TATAGAGGGTCAAAGGCCAGAGTACGAATGTCGA
4.43

Item: TCTAGTTGGTCAAAGGTCACCCACTCGAAATGCG
6.67

Item: TGTCAAAGTTCAATGGTAACGTAAGTATCCACAC
3.53
